target_desc: ProfilerPro Kinase Selectivity Assay Kit kinases (Homo sapiens, UniProt P11362)
Sequence (P11362 22-822 limits assumed): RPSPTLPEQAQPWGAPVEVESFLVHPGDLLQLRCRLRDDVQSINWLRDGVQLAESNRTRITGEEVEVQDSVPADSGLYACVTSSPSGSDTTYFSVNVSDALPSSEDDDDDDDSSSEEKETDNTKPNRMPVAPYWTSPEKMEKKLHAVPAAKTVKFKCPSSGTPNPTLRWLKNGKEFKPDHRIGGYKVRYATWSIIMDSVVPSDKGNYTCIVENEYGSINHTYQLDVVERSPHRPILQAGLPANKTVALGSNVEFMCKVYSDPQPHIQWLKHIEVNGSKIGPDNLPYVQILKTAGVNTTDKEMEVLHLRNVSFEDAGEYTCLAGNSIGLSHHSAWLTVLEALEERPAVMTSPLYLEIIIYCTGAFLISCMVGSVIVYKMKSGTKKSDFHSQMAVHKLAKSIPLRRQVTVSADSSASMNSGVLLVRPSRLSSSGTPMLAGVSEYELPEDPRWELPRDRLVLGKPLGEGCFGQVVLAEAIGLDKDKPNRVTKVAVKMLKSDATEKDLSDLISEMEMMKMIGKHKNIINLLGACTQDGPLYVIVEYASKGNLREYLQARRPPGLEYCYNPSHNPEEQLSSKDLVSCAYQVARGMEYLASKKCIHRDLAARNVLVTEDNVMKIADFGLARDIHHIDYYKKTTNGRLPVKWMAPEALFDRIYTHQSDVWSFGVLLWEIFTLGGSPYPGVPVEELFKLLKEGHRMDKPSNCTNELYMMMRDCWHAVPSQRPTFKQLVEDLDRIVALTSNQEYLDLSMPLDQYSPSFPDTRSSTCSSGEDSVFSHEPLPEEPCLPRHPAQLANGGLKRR
Format: biochemical
applied_conditions: FGFR1; 1 μM compound concentration
parameter_measured: POC (Percent of control) FGFR1 (POC)
Quick note: give the figure in POC, leave out the unit.

Return POC (Percent of control) FGFR1 (reported value) for this compound: CCc1cnc(Nc2ccc(OC)nc2)c(-c2nc(C)nc3[nH]cnc23)c1
99

Return POC (Percent of control) FGFR1 (reported value) for this compound: COc1ccc(Nc2ncccc2-c2nc(C)nc3[nH]cnc23)cn1
94

Return POC (Percent of control) FGFR1 (reported value) for this compound: COc1ccc(Nc2ncc(CN3CCN(C(C)=O)CC3)cc2-c2nc(C)nc3[nH]cnc23)cn1
97

Return POC (Percent of control) FGFR1 (reported value) for this compound: COc1ccc(Nc2ncc(Cc3ccc(S(C)(=O)=O)cc3)cc2-c2nc(C)nc3[nH]cnc23)cn1
100

Return POC (Percent of control) FGFR1 (reported value) for this compound: c1cnc(Nc2cccc3[nH]ccc23)c(-c2ncnc3[nH]cnc23)c1
51

Return POC (Percent of control) FGFR1 (reported value) for this compound: Cc1cnc(Nc2cccc3[nH]ccc23)c(-c2nc(C)nc(N)n2)c1
98

Return POC (Percent of control) FGFR1 (reported value) for this compound: Cc1nc(-c2cccnc2Nc2cccc3[nH]ncc23)c2nc[nH]c2n1
95

Return POC (Percent of control) FGFR1 (reported value) for this compound: Cc1nc(N)cc(-c2cccnc2Nc2cccc3[nH]ncc23)n1
94

Return POC (Percent of control) FGFR1 (reported value) for this compound: Cc1nc(N)nc(-c2cccnc2Nc2cccc3[nH]ccc23)n1
96

====

target_desc: ProfilerPro Kinase Selectivity Assay Kit kinases (Homo sapiens)
Assay type: biochemical
applied_conditions: CK1 delta; 1 μM compound concentration
parameter_measured: POC (Percent of control) CK1 delta (POC)
Quick note: give the figure in POC, leave out the unit.

Recorded results for 3 compounds are shown here.
- COc1ccc(Nc2ncc(Cc3ccc(S(C)(=O)=O)cc3)cc2-c2nc(C)nc3[nH]cnc23)cn1: 120
- Cc1nc(-c2cccnc2Nc2cccc3[nH]ncc23)c2nc[nH]c2n1: 55
- Cc1nc(N)nc(-c2cccnc2Nc2cccc3[nH]ccc23)n1: 91

Next compound, please.
GET POC (Percent of control) CK1 delta where system = ProfilerPro Kinase Selectivity Assay Kit kinases (Homo sapiens) and item = COc1ccc(Nc2ncc(CN3CCN(C(C)=O)CC3)cc2-c2nc(C)nc3[nH]cnc23)cn1
98

====

target_desc: PI3Kα (Homo sapiens (Human), UniProt P42336)
Sequence (P42336 whole entry): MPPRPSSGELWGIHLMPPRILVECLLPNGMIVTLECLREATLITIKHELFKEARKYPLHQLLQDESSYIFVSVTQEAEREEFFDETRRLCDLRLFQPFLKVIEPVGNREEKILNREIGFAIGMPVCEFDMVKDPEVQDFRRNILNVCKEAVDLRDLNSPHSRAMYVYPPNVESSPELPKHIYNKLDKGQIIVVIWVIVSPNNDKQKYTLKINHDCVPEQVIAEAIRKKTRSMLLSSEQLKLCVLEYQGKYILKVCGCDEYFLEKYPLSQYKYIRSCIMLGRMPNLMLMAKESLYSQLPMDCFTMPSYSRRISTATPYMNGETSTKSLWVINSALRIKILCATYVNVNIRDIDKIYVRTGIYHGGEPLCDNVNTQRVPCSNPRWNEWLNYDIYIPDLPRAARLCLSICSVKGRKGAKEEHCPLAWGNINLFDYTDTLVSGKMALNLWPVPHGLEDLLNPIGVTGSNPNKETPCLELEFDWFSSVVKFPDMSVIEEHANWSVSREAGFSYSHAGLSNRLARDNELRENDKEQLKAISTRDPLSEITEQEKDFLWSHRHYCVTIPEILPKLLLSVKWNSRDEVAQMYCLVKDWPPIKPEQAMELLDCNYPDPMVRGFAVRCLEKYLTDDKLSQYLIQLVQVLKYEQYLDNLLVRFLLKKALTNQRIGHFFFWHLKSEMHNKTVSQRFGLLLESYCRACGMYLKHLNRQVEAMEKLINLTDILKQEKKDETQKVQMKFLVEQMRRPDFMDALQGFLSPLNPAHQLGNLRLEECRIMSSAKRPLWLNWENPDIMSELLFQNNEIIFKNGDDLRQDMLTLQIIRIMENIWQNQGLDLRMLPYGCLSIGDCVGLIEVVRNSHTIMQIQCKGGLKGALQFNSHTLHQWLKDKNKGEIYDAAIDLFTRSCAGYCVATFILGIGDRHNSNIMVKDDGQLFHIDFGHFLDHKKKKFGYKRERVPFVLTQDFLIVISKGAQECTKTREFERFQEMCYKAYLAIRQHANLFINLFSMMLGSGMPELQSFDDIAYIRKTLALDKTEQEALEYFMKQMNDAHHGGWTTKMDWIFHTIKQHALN
Sequence (P27986 whole entry partner): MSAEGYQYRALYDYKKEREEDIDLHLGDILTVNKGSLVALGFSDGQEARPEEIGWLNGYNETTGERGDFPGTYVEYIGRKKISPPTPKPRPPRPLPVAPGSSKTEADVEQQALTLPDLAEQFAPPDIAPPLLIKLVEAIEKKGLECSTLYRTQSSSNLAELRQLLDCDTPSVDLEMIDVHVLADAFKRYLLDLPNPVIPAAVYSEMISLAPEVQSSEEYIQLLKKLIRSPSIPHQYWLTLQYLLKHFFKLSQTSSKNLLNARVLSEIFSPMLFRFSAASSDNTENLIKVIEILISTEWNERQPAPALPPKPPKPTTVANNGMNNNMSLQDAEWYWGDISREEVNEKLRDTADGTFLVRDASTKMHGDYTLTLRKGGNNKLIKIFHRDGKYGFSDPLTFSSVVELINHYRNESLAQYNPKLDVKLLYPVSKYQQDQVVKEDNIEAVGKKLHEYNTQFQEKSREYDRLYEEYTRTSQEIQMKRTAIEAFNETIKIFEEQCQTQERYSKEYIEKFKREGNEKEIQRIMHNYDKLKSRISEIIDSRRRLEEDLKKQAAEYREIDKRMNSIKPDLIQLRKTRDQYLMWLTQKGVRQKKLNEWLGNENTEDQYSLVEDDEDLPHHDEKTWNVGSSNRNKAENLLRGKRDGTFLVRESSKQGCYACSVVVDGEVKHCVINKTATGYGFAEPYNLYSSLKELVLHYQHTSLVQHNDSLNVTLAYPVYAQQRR
applied_conditions: read-out: PI3Kα AlphaScreen ® Ki
Measured pKi by item
Remember the convention: pKi equals -log10 of concentration in molar.

- COc1ncc(Nc2ncc(CN3CCN(C(=O)N(C)C)CC3)cc2-c2nc(C)nc(N)n2)cc1F: 7.96
- COc1ccc(Nc2ncc(N3CCC(O)C3)cc2-c2nc(C)nc3[nH]cnc23)cn1 (stereo not drawn): 7.10
- COc1ccc(Nc2ncc(CN3CC4(C3)NC(=O)NC4=O)cc2-c2nc(C)nc(N)n2)cn1: 7.17
- COc1ccc(Nc2ncc(CN3CCN(S(C)(=O)=O)CC3)cc2-c2nc(C)nc3[nH]cnc23)cn1: 7.72
- Cc1nc(N)nc(-c2cc(C(C)(C)O)cnc2Nc2cncc(F)c2)n1: 7.64

Return pKi (reported value) for this compound: COc1ncc(Nc2ncc(C(O)C(F)(F)F)cc2-c2nc(C)nc(N)n2)cc1F (stereo not drawn)
7.77

Return pKi (reported value) for this compound: Cc1nc(N)nc(-c2cc(CN3CCN(S(C)(=O)=O)CC3)cnc2Nc2cnc3c(c2)ncn3C)n1
7.80

====

target_desc: ProfilerPro Kinase Selectivity Assay Kit kinases (Homo sapiens)
Type: biochemical
applied_conditions: FYN; 1 μM compound concentration
Measured POC (Percent of control) FYN by item
Quick note: give the figure in POC, leave out the unit.

• CCc1cnc(Nc2ccc(OC)nc2)c(-c2nc(C)nc3[nH]cnc23)c1 [Example 74] = 104
• c1cnc(Nc2cccc3[nH]ccc23)c(-c2ncnc3[nH]cnc23)c1 [Example 19] = 33
• Cc1nc(N)nc(-c2cccnc2Nc2cccc3[nH]ccc23)n1 [Example 22] = 103
• Cc1nc(-c2cccnc2Nc2cccc3[nH]ncc23)c2nc[nH]c2n1 [Example 57] = 103
• COc1ccc(Nc2ncccc2-c2nc(C)nc3[nH]cnc23)cn1 [Example 58] = 103

Return POC (Percent of control) FYN (reported value) for this molecule: Cc1nc(N)nc(-c2cccnc2Nc2cccc(O)c2)n1 [Example 23]
96

====

target_desc: PI3Kα (Homo sapiens (Human))
applied_conditions: read-out: PI3Kα AlphaScreen ® Ki
parameter_measured: Ki (µM)
Quick note: give the figure in µM, leave out the unit.

Recorded results for 3 compounds are shown here.
* COc1ncc(Nc2ncc(C(C)(C)O)cc2-c2nc(C)nc(N)n2)cc1F [Example 273] | 0.004
* COc1ccc(Nc2ncc(-c3ccnnc3)cc2-c2nc(C)nc(N)n2)cn1 [Example 252] | 0.06
* COc1ccc(Nc2ncc(C(C)(C)N)cc2-c2nc(C)nc(N)n2)cn1 [Example 277] | 0.056

Next compound, please.
Return Ki (reported value) for this compound: COc1ccc(Nc2ncc(C3(N4CCN(S(C)(=O)=O)CC4)CC3)cc2-c2nc(C)nc(N)n2)cn1 [Example 282]
0.007

====

target_desc: ProfilerPro Kinase Selectivity Assay Kit kinases (Homo sapiens, UniProt P28482)
Sequence (P28482 2-360 limits assumed): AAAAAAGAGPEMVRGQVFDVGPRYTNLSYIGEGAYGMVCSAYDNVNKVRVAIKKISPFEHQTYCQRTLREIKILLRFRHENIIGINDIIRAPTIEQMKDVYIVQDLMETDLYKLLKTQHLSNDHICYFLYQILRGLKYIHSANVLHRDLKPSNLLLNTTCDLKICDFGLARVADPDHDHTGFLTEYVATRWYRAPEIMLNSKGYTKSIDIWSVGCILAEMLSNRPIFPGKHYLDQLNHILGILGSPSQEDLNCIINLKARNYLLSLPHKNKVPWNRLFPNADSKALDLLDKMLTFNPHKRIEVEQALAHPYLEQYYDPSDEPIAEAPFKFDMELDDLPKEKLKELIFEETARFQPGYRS
Assay type: biochemical
applied_conditions: ERK2; 1 μM compound concentration
Exam item: assign y to entries whose POC (Percent of control) ERK2 is below 100 POC and n to entries at or above 100 POC. Note that a value of exactly 100 POC receives n.

Consider the following illustrative entries.
- COc1ccc(Nc2ncc(Cc3ccc(S(C)(=O)=O)cc3)cc2-c2nc(C)nc3[nH]cnc23)cn1: y
- Cc1cnc(Nc2cccc3[nH]ncc23)c(-c2nc(C)nc(N)n2)c1: n
- c1cnc(Nc2cccc3[nH]ccc23)c(-c2ncnc3[nH]cnc23)c1: y
- Cc1cnc(Nc2cccc3[nH]ccc23)c(-c2nc(C)nc(N)n2)c1: n
- c1cnc(Nc2cccc3[nH]ncc23)c(-c2ncnc3[nH]cnc23)c1: y

Bench note: check whether COc1ccc(Nc2ncc(CN3CCN(C(C)=O)CC3)cc2-c2nc(C)nc3[nH]cnc23)cn1 shows POC (Percent of control) ERK2 below 100 POC
n

====

Measured POC (Percent of control) CHK2 by item
target_desc: ProfilerPro Kinase Selectivity Assay Kit kinases (Homo sapiens)
Assay type: biochemical
applied_conditions: CHK2; 1 μM compound concentration
Quick note: give the figure in POC, leave out the unit.

Recorded results for 7 compounds are shown here.
• Cc1cnc(Nc2cccc3[nH]ncc23)c(-c2nc(C)nc(N)n2)c1 = 99
• COc1ccc(Nc2ncc(CN3CCN(C(C)=O)CC3)cc2-c2nc(C)nc3[nH]cnc23)cn1 = 97
• c1cnc(Nc2cccc3[nH]ncc23)c(-c2ncnc3[nH]cnc23)c1 = 94
• c1cnc(Nc2cccc3[nH]ccc23)c(-c2ncnc3[nH]cnc23)c1 = 18
• Cc1nc(N)nc(-c2cc(CN3CCN(S(C)(=O)=O)CC3)cnc2Nc2cccc(O)c2)n1 = 106
• CCc1cnc(Nc2ccc(OC)nc2)c(-c2nc(C)nc3[nH]cnc23)c1 = 98
• COc1ccc(Nc2ncc(Cc3ccc(S(C)(=O)=O)cc3)cc2-c2nc(C)nc3[nH]cnc23)cn1 = 94

Next compound, please.
Return POC (Percent of control) CHK2 (reported value) for this compound: Cc1nc(N)nc(-c2cccnc2Nc2cccc(O)c2)n1
101

====

target_desc: UniProt:P42336
applied_conditions: read-out: PI3Kα AlphaScreen ® Ki
pKi: −log10 of the molar value.
# label = class 1 if pKi >= 7 else class 0

Consider the following illustrative entries.
- COCCNc1nc(C)nc(-c2cc(Cl)cnc2Nc2cnc(OC)c(F)c2)n1: class 0
- Cc1nc(N)nc(-c2cccnc2Nc2ccc(N)nc2)n1: class 0
- Cc1nc(N)nc(-c2cc(CN3CCN(S(C)(=O)=O)CC3)cnc2Nc2ccc3[nH]cnc3c2)n1: class 1
- COc1ccc(Nc2ncc(CNCc3ccccn3)cc2-c2nc(C)nc3[nH]cnc23)cn1: class 1
- COc1ccc(Nc2ncc(CNCc3ccncc3)cc2-c2nc(C)nc3[nH]cnc23)cn1: class 1
- COc1ncc(Nc2ncc(C(C)(C)C(=O)O)cc2-c2nc(C)nc(N)n2)cc1F: class 0

Next, consider the following molecule.
Given the entry COc1ccc(Nc2ncc(C(N)C(F)(F)F)cc2-c2nc(C)nc(N)n2)cn1 (centres unmarked) , answer whether its pKi meets or surpasses 7.
class 1

====

Tested on: phosphorylation of Akt at Serine 473 in U87 MG cells
measurement_notes: cells
applied_conditions: Homo sapiens, U-87 MG, 2 h, read-out: U87Cell IC50, pAkt (Ser 473), U87 MG cells, two hours with compound
parameter_measured: IC50 (nM)
Quick note: give the figure in nM, leave out the unit.

- COc1ncc(Nc2ncc(C(C)(C)N3CCN(S(C)(=O)=O)CC3)cc2-c2nc(C)nc(N)n2)cc1F: 14

GET IC50 where system = phosphorylation of Akt at Serine 473 in U87 MG cells and item = COc1ccc(Nc2ncc(C(C)N3CCN(S(C)(=O)=O)CC3)nc2-c2cc(N)nc(C)n2)cn1 (stereo not shown)
111

GET IC50 where system = phosphorylation of Akt at Serine 473 in U87 MG cells and item = CC(=O)Nc1ccc(Nc2ncc(Cl)cc2-c2nc(C)nc(N)n2)cc1F
1100

GET IC50 where system = phosphorylation of Akt at Serine 473 in U87 MG cells and item = Cc1nc(N)nc(-c2cc(CN3CCN(C(=O)N(C)C)CC3)cnc2Nc2cnc(O)c(F)c2)n1
3170
